System: NCI-H322M
Assay: Cytotoxicity against human NCI-H322M cells assessed as growth inhibition at 10 uM after 48 hrs by SRB assay relative to control
Format: functional
Conditions: read-out: GI
Recorded Endpoint: inhibition of growth at 10 µM

input: Param item = `O=c1oc2cc(NCCN3CCOCC3)ccc2cc1-c1nc2ccccc2[nH]1` ; retrieve measured inhibition of growth at 10 µM.
output: < 20%

input: Consider the molecule `O=c1[nH]cc(F)c(=O)[nH]1` and give its measured inhibition of growth at 10 µM.
output: 59.5%

input: Quick one: inhibition of growth at 10 µM for `CN1CCN(c2ccc3cc(-c4nc5ccccc5[nH]4)c(=O)oc3c2)CC1` ?
output: < 20%

input: Find the recorded inhibition of growth at 10 µM belonging to `O=c1oc2cc(N3CCOCC3)ccc2cc1-c1nc2ccccc2[nH]1` and report it.
output: < 20%

input: Which measured inhibition of growth at 10 µM value corresponds to `O=c1oc2cc(Br)ccc2cc1-c1nc2ccccc2[nH]1` ?
output: < 20%

input: Param item = `NCCNc1ccc2cc(-c3nc4ccccc4[nH]3)c(=O)oc2c1` ; retrieve measured inhibition of growth at 10 µM.
output: < 20%

input: Need inhibition of growth at 10 µM of `O=c1oc2cc(NCCO)ccc2cc1-c1nc2ccccc2[nH]1` , thanks.
output: 29.7%

Origin of values: ChEMBL document CHEMBL2396528
